- Test system: Hey (Ovarian Carcinoma)
- assay_protocol: Bliss excess, mean over the matrix (fraction); higher = more synergy
property_name: Bliss excess
Give bare numbers.

As a guide, the following entries are already answered.
CC1(C)CCC(CN2CCN(c3ccc(C(=O)NS(=O)(=O)c4ccc(NCC5CCOCC5)c([N+](=O)[O-])c4)c(Oc4cnc5[nH]ccc5c4)c3)CC2)=C(c2ccc(Cl)cc2)C1 [Venetoclax] + C[C@@H]1COCCN1C2=NC(=NC(=C2)C3(CC3)[S@](=N)(=O)C)C4=C5C=CNC5=NC=C4 [AZD6738] (first compound max 1 µM, 7x7, partner max 10 µM); -0.0378
CN(CCO)CC[C@H](CSc1ccccc1)Nc1ccc(S(=O)(=O)NC(=O)c2ccc(N3CCC([C@@H](O)c4ccccc4-c4ccc(Cl)cc4)CC3)cc2)cc1S(=O)(=O)C(F)(F)F [AZD4320] + CN(C)CCCOc1ccc(-c2ccc3ncc4c(c3c2)n(C2CCOCC2)c(=O)n4C)cn1 [AZD0156] (first compound max 1 µM, 7x7, partner max 1 µM); -0.0272

Bliss excess lookup needed for Cn1cnc2c(F)c(Nc3ccc(Br)cc3Cl)c(C(=O)NOCCO)cc21 [Selumetinib] + CC(C)n1c(=O)n(C)c2cnc3cc(F)c(-c4ccc(OCCCN5CCCCC5)nc4)cc3c21 [AZD1390] (first compound max 10 µM, 7x7, partner max 0.3 µM) , thanks.
-0.0378

====

- System: SKN (Other Solid Carcinomas)
- assay_protocol: Bliss excess, mean over the matrix (fraction); higher = more synergy
Consider the following partition of reported Bliss excess into named classes: A: < -0.04; B: ≥ -0.04 and < -0.03; C: ≥ -0.03

Illustrative cases are given below, each with its answer.
Cc1nc(-c2cn3c(n2)-c2ccc(-c4cnn(C(C)(C)C(N)=O)c4)cc2OCC3)n(C(C)C)n1 [Taselisib] + O=C(Nc1ccc2[nH]nc(-c3ccncc3)c2c1)[C@@H]1CCN(CC(=O)N2CCN(c3ccc(-c4ncccn4)cc3)CC2)C1 [SCH772984] (first compound max 10 µM, 7x7, partner max 5 µM); A
CN(CCO)CC[C@H](CSc1ccccc1)Nc1ccc(S(=O)(=O)NC(=O)c2ccc(N3CCC([C@@H](O)c4ccccc4-c4ccc(Cl)cc4)CC3)cc2)cc1S(=O)(=O)C(F)(F)F [AZD4320] + Nc1ccn([C@@H]2O[C@H](CO)[C@@H](O)C2(F)F)c(=O)n1 [Gemcitabine] (first compound max 1 µM, 7x7, partner max 0.3 µM); C
CS(=O)(=O)CCNCc1ccc(-c2ccc3ncnc(Nc4ccc(OCc5cccc(F)c5)c(Cl)c4)c3c2)o1 [Lapatinib] + C[C@@H](Oc1cc(-c2cnn(C3CCNCC3)c2)cnc1N)c1c(Cl)ccc(F)c1Cl [Crizotinib] (first compound max 10 µM, 7x7, partner max 10 µM); C
Cc1cc2ncnn2cc1Nc1ncc2c(n1)n(C1CCOCC1)c(=O)n2C [AZD7648] + CN(C)CCCOc1ccc(-c2ccc3ncc4c(c3c2)n(C2CCOCC2)c(=O)n4C)cn1 [AZD0156] (first compound max 10 µM, 7x7, partner max 1 µM); C

Lab note: sort CN(C)CCCOc1ccc(-c2ccc3ncc4c(c3c2)n(C2CCOCC2)c(=O)n4C)cn1 [AZD0156] + CCN(CCO)CCCOc1ccc2c(Nc3cc(CC(=O)Nc4cccc(F)c4)[nH]n3)ncnc2c1 [AZD2811] (first compound max 1 µM, 7x7, partner max 1 µM) into the matching Bliss excess band.
B

Can you check Cc1cc2ncnn2cc1Nc1ncc2c(n1)n(C1CCOCC1)c(=O)n2C [AZD7648] + CCN(CCO)CCCOc1ccc2c(Nc3cc(CC(=O)Nc4cccc(F)c4)[nH]n3)ncnc2c1 [AZD2811] (first compound max 10 µM, 7x7, partner max 1 µM) next?
B

====

Task for the reader: assign each of the following molecules its reported Bliss excess.
- System: OACM5-1 (Esophageal Adenocarcinoma)
- assay_protocol: Bliss excess, mean over the matrix (fraction); higher = more synergy

C[C@@H](c1ccc2nccn2c1)n1nnc2ncc(-c3cnn(C)c3)nc21 [Savolitinib] + CN(CC[C@H](CSC1=CC=CC=C1)NC2=C(C=C(C=C2)S(=O)(=O)NC(=O)C3=CC=C(C=C3)N4CCC(CC4)[C@H](C5=CC=CC=C5C6=CC=C(C=C6)Cl)O)S(=O)(=O)C(F)(F)F)CCO [AZD4320] (first compound max 1 µM, 7x7, partner max 1 µM); -0.0435

Now turn to the next molecule.
Which Bliss excess reading was recorded for the molecule Cc1cc2ncnn2cc1Nc1ncc2c(n1)n(C1CCOCC1)c(=O)n2C [AZD7648] + O=C(c1cc(Cc2n[nH]c(=O)c3ccccc23)ccc1F)N1CCN(C(=O)C2CC2)CC1 [Olaparib] (first compound max 10 µM, 7x7, partner max 10 µM) ?
-0.0505

====

- Tested on: OE33 (Esophageal Adenocarcinoma)
- assay_protocol: combination Emax (second highest fraction inhibited in the dose matrix, 72 h); higher = more inhibition; extreme values may be limits of the assay
Would you kindly list combination Emax for each of these molecules?

// each listed molecule needs a value for combination Emax
1. C=CCn1c(=O)c2cnc(Nc3ccc(N4CCN(C)CC4)cc3)nc2n1-c1cccc(C(C)(C)O)n1 [AZD1775] + C1CN(CCC1(C(=O)N[C@@H](CCO)C2=CC=C(C=C2)Cl)N)C3=NC=NC4=C3C=CN4 [Capivasertib] (first compound max 3 µM, partner max 3 µM)
2. N#Cc1cnc(Nc2cc(NC[C@H]3CNCCO3)c(C(F)(F)F)cn2)cn1 [SRA737] + O=c1[nH]cc(F)c(=O)[nH]1 [5-Fluorouracil] (first compound max 10 µM, 7x7, partner max 20 µM)
3. CC1(C)CCC(CN2CCN(c3ccc(C(=O)NS(=O)(=O)c4ccc(NCC5CCOCC5)c([N+](=O)[O-])c4)c(Oc4cnc5[nH]ccc5c4)c3)CC2)=C(c2ccc(Cl)cc2)C1 [Venetoclax] + COc1cc(Nc2ncc3c(n2)-c2ccc(Cl)cc2C(c2c(F)cccc2OC)=NC3)ccc1C(=O)O [Alisertib] (first compound max 1 µM, 7x7, partner max 10 µM)

0.639
0.721
0.314

====

- Test system: COLO-668 (Small Cell Lung Carcinoma)
- assay_protocol: combination Emax (second highest fraction inhibited in the dose matrix, 72 h); higher = more inhibition; extreme values may be limits of the assay
Consider the following compounds; for each one, report its combination Emax.
Answers are plain numbers.

Here is how some compounds turned out for combination Emax.
CC1(C)CCC(CN2CCN(c3ccc(C(=O)NS(=O)(=O)c4ccc(NCC5CCOCC5)c([N+](=O)[O-])c4)c(Oc4cnc5[nH]ccc5c4)c3)CC2)=C(c2ccc(Cl)cc2)C1 [Venetoclax] + C=CCn1c(=O)c2cnc(Nc3ccc(N4CCN(C)CC4)cc3)nc2n1-c1cccc(C(C)(C)O)n1 [AZD1775] (first compound max 1 µM, partner max 1 µM); 0.943
COc1cc2ncnc(Nc3ccc(F)c(Cl)c3)c2cc1OCCCN1CCOCC1 [Gefitinib] + CC(C)n1c(=O)n(C)c2cnc3cc(F)c(-c4ccc(OCCCN5CCCCC5)nc4)cc3c21 [AZD1390] (first compound max 10 µM, 7x7, partner max 0.3 µM); 0.176
COc1cccc(OCCCN)c1-c1cc(Nc2cnc(C#N)cn2)n[nH]1 [Prexasertib] + C=CCn1c(=O)c2cnc(Nc3ccc(N4CCN(C)CC4)cc3)nc2n1-c1cccc(C(C)(C)O)n1 [AZD1775] (first compound max 1 µM, partner max 1 µM); 0.881
CC(=O)Nc1cccc(-n2c(=O)n(C3CC3)c(=O)c3c(Nc4ccc(I)cc4F)n(C)c(=O)c(C)c32)c1 [Trametinib] + Cc1nc(-c2cn3c(n2)-c2ccc(-c4cnn(C(C)(C)C(N)=O)c4)cc2OCC3)n(C(C)C)n1 [Taselisib] (first compound max 1 µM, 7x7, partner max 10 µM); 0.96
NC1(C(=O)N[C@@H](CCO)c2ccc(Cl)cc2)CCN(c2ncnc3[nH]ccc23)CC1 [Capivasertib] + Cn1cnc2c(F)c(Nc3ccc(Br)cc3Cl)c(C(=O)NOCCO)cc21 [Selumetinib] (first compound max 10 µM, 7x7, partner max 10 µM); 0.669

Could you tell me combination Emax for each of these compounds? They are listed below.
1. C[C@@H]1COCCN1c1cc(C2([S@](C)(=N)=O)CC2)nc(-c2ccnc3[nH]ccc23)n1 [AZD6738] + C1CC(C1)(C(=O)[O-])C(=O)[O-].N.N.[Pt+2] [Carboplatin] (first compound max 10 µM, 7x7, partner max 10 µM)
2. O=C(c1cc(Cc2n[nH]c(=O)c3ccccc23)ccc1F)N1CCN(C(=O)C2CC2)CC1 [Olaparib] + Cc1c2c(nn1C)CSCc1cc(n(C)n1)CSc1cc(c3ccccc3c1)OCCCc1c(C(=O)O)n(C)c3c-2c(Cl)ccc13 [AZD5991] (first compound max 10 µM, 7x7, partner max 1 µM)
3. CC1(C)CCC(CN2CCN(c3ccc(C(=O)NS(=O)(=O)c4ccc(NCC5CCOCC5)c([N+](=O)[O-])c4)c(Oc4cnc5[nH]ccc5c4)c3)CC2)=C(c2ccc(Cl)cc2)C1 [Venetoclax] + COc1cc(Nc2ncc3c(n2)-c2ccc(Cl)cc2C(c2c(F)cccc2OC)=NC3)ccc1C(=O)O [Alisertib] (first compound max 1 µM, 7x7, partner max 10 µM)

0.567
0.0291
0.474

So what does the record say about combination Emax for CN(C)CCCOc1ccc(-c2ccc3ncc4c(c3c2)n(C2CCOCC2)c(=O)n4C)cn1 [AZD0156] + C=CCn1c(=O)c2cnc(Nc3ccc(N4CCN(C)CC4)cc3)nc2n1-c1cccc(C(C)(C)O)n1 [AZD1775] (first compound max 1 µM, partner max 1 µM) ?
0.405
